- experimental target: HLA-A*02:01 (Homo sapiens, UniProt P04439, D140Y/D185E/D98H/E176V/E277Q/G131W/G231S/I119V/I121R/I166T/I218V/L300P/L318F/N151K/N90K/P208A/P217A/Q86G/Q94H/R138H/R169H/T345S)
- assay details: MHC binding assay: UV-ligand exchange with beta2m ELISA (exchange yield)
- condition description: binding to HLA-A*02:01, β2m ELISA
experimental readout: Peptide exchange (MHC class I binding score, peptide exchange yield)

1. 253 (GLDAATATV; listed as Homo sapiens) [compound 253]; “++” (≥20% = ++)
2. 430 (HLYSSIEHLTT; listed as Homo sapiens) [compound 430]; “+++” (≥50 = +++)
3. 280 (VLPDPEVLEAV; listed as Homo sapiens) [compound 280]; “+++” (≥50 = +++)
4. 442 (GLLGGGGVLGV; listed as Homo sapiens) [compound 442]; “+++” (≥50 = +++)
5. 451 (LLLLDTVTMQV; listed as Homo sapiens) [compound 451]; “++” (≥20% = ++)
6. 550 (FLYDEIEAEVNL; listed as Homo sapiens) [compound 550]; “+++” (≥50 = +++)
7. 537 (TLAPGEVLRSV; listed as Homo sapiens) [compound 537]; “+++” (≥50 = +++)

Consider the record given below.
What value of Peptide exchange (MHC class I binding score, peptide exchange yield) has been recorded for this entry: 564 (TVTNAVVTV; listed as Homo sapiens) [compound 564]
“+++” (≥50 = +++)
